biological target: IRAK-4 (Homo sapiens); test: IRAK-4 ELISA, PBMC degradation; type: cell-based; set-up: endogenous in cells; host or cells: PBMC; conditions: treated overnight
metric: DC50

Example compounds with recorded DC50:
# compound, metric, experimentalValue
records = [
    ("CC(C)Oc1cc2c(cc1NC(=O)c1cnn3cccnc13)CN(C1CCN(CC3(O)CN(c4ccc5c(c4)C(=O)N(C4CCC(=O)NC4=O)C5=O)C3)CC1)C2=O (centres unmarked)", "DC50", "< 1 nM"),
    ("O=C1CCC(N2C(=O)c3ccc(N4CCC5(CC4)CN([C@H]4CC[C@H](n6cc7cc(NC(=O)c8cnn9cccnc89)c(OCC8CC8)cc7n6)CC4)C5)cc3C2=O)C(=O)N1 (some centres unmarked)", "DC50", "1 to 5 nM"),
    ("CC(C)Oc1cc2c(cc1NC(=O)c1cnn3cccnc13)CN(C1CCN(C[C@H]3CN(c4ccc5c(c4)C(=O)N(C4CCC(=O)NC4=O)C5=O)CCO3)CC1)C2=O (some centres unmarked)", "DC50", "< 1 nM"),
    ("CC(C)Oc1cc2c(cc1NC(=O)c1cnn3cccnc13)CN(C1CCN(CC3(F)CN(c4ccc5c(c4F)CN(C4CCC(=O)NC4=O)C5=O)C3)CC1)C2=O (centres unmarked)", "DC50", "1 to 5 nM"),
]

Could you now look at the following compound, please?
response.value for O=C1CCC(N2Cc3cc(N4CC(F)(CN5CCC(n6cc7cc(NC(=O)c8cnn9cccnc89)c(OCC8CC8)cc7n6)CC5)C4)ccc3C2=O)C(=O)N1 (centres unmarked) (field: DC50) = < 1 nM

----------
A collection of molecules and their measured Dmax
Biological target: UniProt:Q9NWZ3
Sequence (Q9NWZ3 1-460): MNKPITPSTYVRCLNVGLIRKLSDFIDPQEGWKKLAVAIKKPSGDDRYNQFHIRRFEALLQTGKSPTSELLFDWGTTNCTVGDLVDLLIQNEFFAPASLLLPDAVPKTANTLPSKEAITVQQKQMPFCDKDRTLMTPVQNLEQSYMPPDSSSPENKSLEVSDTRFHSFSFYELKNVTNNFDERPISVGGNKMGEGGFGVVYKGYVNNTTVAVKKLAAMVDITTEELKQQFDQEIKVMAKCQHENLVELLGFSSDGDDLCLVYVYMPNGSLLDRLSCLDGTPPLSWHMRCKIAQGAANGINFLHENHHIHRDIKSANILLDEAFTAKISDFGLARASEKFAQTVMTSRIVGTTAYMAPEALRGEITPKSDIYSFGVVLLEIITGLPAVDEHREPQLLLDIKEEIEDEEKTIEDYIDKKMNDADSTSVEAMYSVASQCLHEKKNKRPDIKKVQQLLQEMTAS
Assay: IRAK-4 ELISA, PBMC degradation
Format: cell-based
Design: endogenous in cells; host or cells: PBMC
Details: treated overnight

// below: answered molecules
# molecule, Dmax
data = [
    ("CN1CC(Oc2cc3nn(C4CCN(CC5(F)CN(c6ccc7c(c6)C(=O)N(C6CCC(=O)NC6=O)C7=O)C5)CC4)cc3cc2NC(=O)c2cnn3cccnc23)C1 (centres unmarked)", "≥ 90%"),
    ("O=C1CCC(N2C(=O)c3ccc(N4CC(F)(CN5CCC([C@H](F)CN6Cc7cc(NC(=O)c8cnn9cccnc89)c(N8CCOCC8)cc7C6=O)CC5)C4)cc3C2=O)C(=O)N1 (some centres unmarked)", "80 to 90%"),
    ("CC(C)Oc1cc2c(cc1NC(=O)c1cnn3cccnc13)CN([C@H]1CC[C@H](N3CC4(CN(c5ccc6c(c5)CN(C5CCC(=O)NC5=O)C6=O)C4)C3)CC1)C2=O (some centres unmarked)", "≥ 90%"),
    ("CC(C)Oc1cc2c(cc1NC(=O)c1cnn3cccnc13)CN(C1CCN(CC3(F)CCN(c4ccc5c(c4)C(=O)N(C4CCC(=O)NC4=O)C5=O)CC3)CC1)C2=O (centres unmarked)", "≥ 90%"),
]

Lab note: Cn1c(=O)n(C2CCC(=O)NC2=O)c2cccc(N3CC(N(C)[C@H]4CC[C@H](n5cc6cc(NC(=O)c7cnn8cccnc78)c(OCC7CC7)cc6n5)CC4)C3)c21 (some centres unmarked) gave Dmax of 80 to 90%
